Please go through the items and note down their ELISA luminescence signal at 10 nmol/L peptide, relative to SEQ ID NO: 47 (=1).
- assayed system: T1, Recombinant Human FGFR2 alpha (IIIc) Fc Chimera Protein, CF (R&D systems, 712-FR-050) (human, UniProt P21802 22-377)
- T1 construct: bought; not shown: Fc part of the chimera
- T1 sequence (P21802 22-377, change not shown): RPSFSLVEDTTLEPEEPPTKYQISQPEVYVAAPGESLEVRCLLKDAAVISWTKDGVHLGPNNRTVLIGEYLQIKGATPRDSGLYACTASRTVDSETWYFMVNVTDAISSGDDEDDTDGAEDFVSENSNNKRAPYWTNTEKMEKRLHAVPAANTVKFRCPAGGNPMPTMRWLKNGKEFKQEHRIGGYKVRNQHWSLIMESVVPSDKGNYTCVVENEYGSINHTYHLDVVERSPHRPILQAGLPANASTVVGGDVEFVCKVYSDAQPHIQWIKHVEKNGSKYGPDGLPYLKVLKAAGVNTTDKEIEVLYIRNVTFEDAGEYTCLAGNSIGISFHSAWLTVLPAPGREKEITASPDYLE
- protocol notes: ELISA on plate-bound FGFR2-Fc
Bridge positions count the residues as written; N and C are the ends. Ends that are not written are not given here. COCH2 = acetyl group that carries the bridge

Query: Entry QK(COCH2)PQNFINPVQWRYFQHYCN (thioether 2-19) [cyclic peptide SEQ ID NO: 399] needs its ELISA luminescence signal at 10 nmol/L peptide, relative to SEQ ID NO: 47 (=1) filled in; supply it.
Reply: 0.1 to 0.5 ratio

Query: Recall and state the measured ELISA luminescence signal at 10 nmol/L peptide, relative to SEQ ID NO: 47 (=1) for YCEENYLDPEQYQYFVYFK(COCH2)Y (thioether 2-19 (inferred)) [cyclic peptide SEQ ID NO: 279] .
Reply: ≥ 0.7 ratio

Query: Could you please provide reported ELISA luminescence signal at 10 nmol/L peptide, relative to SEQ ID NO: 47 (=1) for GCPQNFINPVQWRYFQHYK(COCH2)N (thioether 2-19 (inferred)) [cyclic peptide SEQ ID NO: 71] ? Thanks!
Reply: ≥ 0.7 ratio

Query: Item CRALLRGAPFHLAEC (disulfide 1-15, also called cyclic peptide reported in WO2000/003245A) [cyclic peptide SEQ ID NO: 34] : provide ELISA luminescence signal at 10 nmol/L peptide, relative to SEQ ID NO: 47 (=1)
Reply: < 0.1 ratio

Query: Consider the binder QCPQNFINPVQWRYFQHFK(COCH2)N (thioether 2-19) [cyclic peptide SEQ ID NO: 92] . State its measured ELISA luminescence signal at 10 nmol/L peptide, relative to SEQ ID NO: 47 (=1).
Reply: ≥ 0.7 ratio

Query: Tell me measured ELISA luminescence signal at 10 nmol/L peptide, relative to SEQ ID NO: 47 (=1) for YCEENYLDPYQYQYFIYFK(COCH2)Y (thioether 2-19 (inferred)) [cyclic peptide SEQ ID NO: 242] please.
Reply: ≥ 0.7 ratio

Query: For the binder YCEENYLDPEQYQYFHYFK(COCH2)R (thioether 2-19) [cyclic peptide SEQ ID NO: 390] , report ELISA luminescence signal at 10 nmol/L peptide, relative to SEQ ID NO: 47 (=1).
Reply: 0.1 to 0.5 ratio

Query: Give recorded ELISA luminescence signal at 10 nmol/L peptide, relative to SEQ ID NO: 47 (=1). YCEENYLSPEQYQYFIYFK(COCH2)Y (thioether 2-19 (inferred)) [cyclic peptide SEQ ID NO: 216]
Reply: ≥ 0.7 ratio

Query: Give recorded ELISA luminescence signal at 10 nmol/L peptide, relative to SEQ ID NO: 47 (=1). YCMENYLDPEQYQYFIYFK(COCH2)Y (thioether 2-19) [cyclic peptide SEQ ID NO: 348]
Reply: ≥ 0.7 ratio

Query: Retrieve ELISA luminescence signal at 10 nmol/L peptide, relative to SEQ ID NO: 47 (=1) measured for DCYWDDQQYSFLQLYK(COCH2)R (thioether 2-16) [cyclic peptide SEQ ID NO: 121] and print it.
Reply: ≥ 0.7 ratio

Query: Retrieve ELISA luminescence signal at 10 nmol/L peptide, relative to SEQ ID NO: 47 (=1) measured for YCEINYLDPEQYQYFIYFK(COCH2)Y (thioether 2-19) [cyclic peptide SEQ ID NO: 169] and print it.
Reply: ≥ 0.7 ratio

Query: Indicate its recorded ELISA luminescence signal at 10 nmol/L peptide, relative to SEQ ID NO: 47 (=1); the binder in question is YCEENYHDPEQYQYFIYFK(COCH2)Y (thioether 2-19 (inferred)) [cyclic peptide SEQ ID NO: 206]
Reply: ≥ 0.7 ratio

Query: Hello, please tell me recorded ELISA luminescence signal at 10 nmol/L peptide, relative to SEQ ID NO: 47 (=1) for this one: YCEENYLDPEQYQYLIYFK(COCH2)Y (thioether 2-19 (inferred)) [cyclic peptide SEQ ID NO: 275]
Reply: ≥ 0.7 ratio

Query: Consider the binder YCEENYLDPEQWQYFIYFK(COCH2)Y (thioether 2-19 (inferred)) [cyclic peptide SEQ ID NO: 255] and give its recorded ELISA luminescence signal at 10 nmol/L peptide, relative to SEQ ID NO: 47 (=1).
Reply: ≥ 0.7 ratio

Query: Tell me its ELISA luminescence signal at 10 nmol/L peptide, relative to SEQ ID NO: 47 (=1) given YCGENYLDPEQYQYFIYFK(COCH2)Y (thioether 2-19) [cyclic peptide SEQ ID NO: 151] as the entry.
Reply: ≥ 0.7 ratio

Query: Write down ELISA luminescence signal at 10 nmol/L peptide, relative to SEQ ID NO: 47 (=1) measured for item QCPQNFINPVQWRYYQHYK(COCH2)N (thioether 2-19 (inferred)) [cyclic peptide SEQ ID NO: 89]
Reply: 0.5 to 0.7 ratio

Query: // fetch ELISA luminescence signal at 10 nmol/L peptide, relative to SEQ ID NO: 47 (=1) given entry YCEENYLDPEQYQYFISFK(COCH2)Y (thioether 2-19 (inferred)) [cyclic peptide SEQ ID NO: 300]
Reply: ≥ 0.7 ratio

Query: Supply recorded ELISA luminescence signal at 10 nmol/L peptide, relative to SEQ ID NO: 47 (=1) for QCQLNYWDDLQFTYYLQYK(COCH2)V (thioether 2-19) [cyclic peptide SEQ ID NO: 37] here.
Reply: ≥ 0.7 ratio

Query: Report ELISA luminescence signal at 10 nmol/L peptide, relative to SEQ ID NO: 47 (=1) for ACPQNFINPVQWRYFQHYK(COCH2)N (thioether 2-19 (inferred)) [cyclic peptide SEQ ID NO: 53]
Reply: ≥ 0.7 ratio

Query: Complete the entry with ELISA luminescence signal at 10 nmol/L peptide, relative to SEQ ID NO: 47 (=1) for YCEENYLDPEQFQYFIYFK(COCH2)Y (thioether 2-19 (inferred)) [cyclic peptide SEQ ID NO: 254]
Reply: ≥ 0.7 ratio

Query: Annotate the binder YCEENYLDPEQYQYFHYFK(COCH2)Y (thioether 2-19 (inferred)) [cyclic peptide SEQ ID NO: 290] with its measured ELISA luminescence signal at 10 nmol/L peptide, relative to SEQ ID NO: 47 (=1).
Reply: ≥ 0.7 ratio

Query: Recall and state the measured ELISA luminescence signal at 10 nmol/L peptide, relative to SEQ ID NO: 47 (=1) for YCEENYLDPEQYRYFIYFK(COCH2)Y (thioether 2-19 (inferred)) [cyclic peptide SEQ ID NO: 269] .
Reply: ≥ 0.7 ratio

Query: Give the value of ELISA luminescence signal at 10 nmol/L peptide, relative to SEQ ID NO: 47 (=1) reported for the following: YCEENYLDPEQYQYFAYFK(COCH2)Y (thioether 2-19) [cyclic peptide SEQ ID NO: 332]
Reply: ≥ 0.7 ratio
